# test.system: T1, murine IL-11 (mouse, UniProt P47873 22-199)
# T1 sequence: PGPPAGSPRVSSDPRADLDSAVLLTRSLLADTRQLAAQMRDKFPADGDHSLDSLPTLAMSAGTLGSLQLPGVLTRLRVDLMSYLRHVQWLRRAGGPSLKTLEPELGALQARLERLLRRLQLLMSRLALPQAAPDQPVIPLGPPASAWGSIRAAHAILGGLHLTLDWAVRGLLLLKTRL
# test.summary: cell-based or functional assay
Measured RGA IC50, listed per entry for reference.
readout.type: RGA IC50 (nM)

binder: TPP-29383 (antibody, human IgG1, V domains shown) VH: EVQLLESGGGLVQPGGSLRLSCAASGFTFSSYGMHWVRQAPGKGLEWVAVISYDGSYKYYADSVKGRFTISRDNSKNTLYLQMNSLRAEDTAVYYCAAGVPDYWGQGTLVTVSS VL: QSVLTQPPSASGTPGQRVTISCSGSSSNIGSDLDVHWYQQLPGTAPKLLIYSNEERPSGVPDRFSGSKSGTSASLAISGLRSEDEADYYCAAWDPSLYGPVFGGGTKLTVL
numeric.readout: 0.57

binder: TPP-29382 (antibody, human IgG1, V domains shown) VH: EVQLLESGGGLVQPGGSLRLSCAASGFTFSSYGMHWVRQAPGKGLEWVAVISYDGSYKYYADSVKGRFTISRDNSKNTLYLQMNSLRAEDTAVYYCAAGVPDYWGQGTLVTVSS VL: QSVLTQPPSASGTPGQRVTISCSGSSSNIGSDLDVHWYQQLPGTAPKLLIYSNNERPSGVPDRFSGSKSGTSASLAISGLRSEDEADYYCAAWDFSLYGPVFGGGTKLTVL
numeric.readout: 0.26

binder: TPP-29381 (antibody, human IgG1, V domains shown) VH: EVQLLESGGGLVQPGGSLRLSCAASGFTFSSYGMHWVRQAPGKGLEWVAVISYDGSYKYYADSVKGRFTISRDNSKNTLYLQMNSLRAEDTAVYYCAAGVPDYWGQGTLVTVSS VL: QSVLTQPPSASGTPGQRVTISCSGSSSNIGSDYDVHWYQQLPGTAPKLLIYSNNERPSGVPDRFSGSKSGTSASLAISGLRSEDEADYYCSAWDSSLSGPVFGGGTKLTVL
numeric.readout: 0.45

binder: TPP-29404 (antibody, human IgG1, V domains shown) VH: EVQLLESGGGLVQPGGSLRLSCAASGFTFSSYGGHWVRQAPGKGLEWVALISYDGSYKYYADSVKGRFTISRDNSKNTLYLQMNSLRAEDTAVYYCAAGVPDYWGQGTLVTVSS VL: QSVLTQPPSASGTPGQRVTISCSGSSSNIGSYYDVHWYQQLPGTAPKLLIYSNNERPSGVPDRFSGSKSGTSASLAISGLRSEDEADYYCAAWDSSLSGPVFGGGTKLTVL
numeric.readout: 0.19

binder: TPP-29401 (antibody, human IgG1, V domains shown) VH: EVQLLESGGGLVQPGGSLRLSCAASGFTFSSYGGHWVRQAPGKGLEWVAVISYDGSYKYYADSVKGRFTISRDNSKNTLYLQMNSLRAEDTAVYYCAAGVPDYWGQGTLVTVSS VL: QSVLTQPPSASGTPGQRVTISCSGSSSNIGSYYDVHWYQQLPGTAPKLLIYSNEERPSGVPDRFSGSKSGTSASLAISGLRSEDEADYYCAAWDDSLSGPVFGGGTKLTVL
numeric.readout: 0.15

binder: TPP-29384 (antibody, human IgG1, V domains shown) VH: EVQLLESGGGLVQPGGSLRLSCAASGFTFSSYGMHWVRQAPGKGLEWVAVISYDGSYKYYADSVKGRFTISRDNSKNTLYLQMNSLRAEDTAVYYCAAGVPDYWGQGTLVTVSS VL: QSVLTQPPSASGTPGQRVTISCSGSSSNIGSGYDVHWYQQLPGTAPKLLIYSNEERPSGVPDRFSGSKSGTSASLAISGLRSEDEADYYCAAWDPSLSGPVFGGGTKLTVL
numeric.readout: 0.33

Source of measurements: patent US20240317847A1
